Molecular target: T1, 006 PSMA Fab
T1 construct: also called Anti-PSMA Fab
Assay: phage binding ELISA; biotinylated PSMA Fab on neutravidin plate, clonal phage supernatant, anti-M13 HRP detection; blocking buffer alone;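 further: before phage were added, wells were preincubated with blocking buffer either containing PSMA antigen or without it, and phage were then added with no wash in between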
Where no end group is shown, it is not given here.
experimental-endpoint: Phage binding ELISA signal, Anti-PSMA Fab
Answer as a number with no unit attached.

Worked examples, 5 binders total:
- binder: "VGNWCIPLWMCAAE (cysteine pairing not given here; also: displayed on bacteriophage as fusion to pIII) [Phage-2704]"
  value-measured: 0.81
- binder: "EEMWCIPVWMCEHQ [Phage-2696]"
  value-measured: 0.829
- binder: "PDNWCIPAWMCERF [Phage-2709]"
  value-measured: 0.793
- binder: "DHKWCTPPWMCAAD (cysteine pairing not given here; also: displayed on bacteriophage as fusion to pIII) [Phage-2707]"
  value-measured: 0.797
- binder: "QVPWCTPAWMCERA [Phage-2702]"
  value-measured: 0.814

Shift focus to the following entry.
Looking for the measured Phage binding ELISA signal, Anti-PSMA Fab of DNMLCRPSWMCEGL [Phage-2701] , can you help?
0.816
